test system: Plasmodium falciparum; assay: GSK_TCMDC: Inhibition of Plasmodium falciparum 3D7 in whole red blood cells, using parasite LDH activity as an index of growth. Test compounds present at 2uM; type: functional
Below, each of the molecules is paired with its reported Inhibition value.
Field format: number, assumed %, no unit text.

molecule	measurement_units	measured_value
COc1ccc2[nH]c(C)cc(=NN=Cc3ccc(Cl)cc3)c2c1	%	100

Could you now look at the following molecule, please?
Note to self: Inhibition recorded for CCN(CC)CCCC(C)Nc1ccnc2ccc(OC)cc12.Cl.O (centres undefined) was 100

###

test system: HepG2; assay: GSK_TCMDC: Percent inhibition of human HepG2 cell line. Test compounds present at 10uM.; assay type: functional
measured_metric: Inhibition (%)
Field format: number, assumed %, no unit text.

compound	measured_metric	measurement_units	measured_value
O=C(Nc1nc2cc(S(=O)(=O)NCc3ccc(Cl)c(Cl)c3)ccc2n1CCCN1CCCC1)c1ccc(Cl)cc1.O=C(O)C(F)(F)F	Inhibition	%	57
COc1ccccc1-c1ccc2nnc(SCC(=O)Nc3ccc4c(c3)OCCO4)n2n1	Inhibition	%	9
CCOc1ccc(/C=C/C(=O)Nc2cccc3c2CCN(C)C3)cc1.Cl	Inhibition	%	0

Could you now look at the following compound, please?
Note to self: Inhibition recorded for `N#Cc1ccc(Cn2ccc3c4c(N)nc(N)nc4ccc32)cc1` was 64
